Could you please report measured GI50 for the items listed next?
System: Hs-578T
Test: NCI tumour cell line growth inhibition, 48 h
Active and inactive are the calls of the source. Cut-off read from the data, not from the text of the source: active = GI50 up to about 1.1 µM and inactive = higher.

Quick note, GI50 for `Cc1c(-c2ccccc2)c(C#N)c2nnn(C)c(=O)n12` landed at > 100 µM (inactive)

Quick note, GI50 for `O=C(CCN1CC2CCC(CC2)C1)c1cccs1` landed at 27.3 µM (inactive)

Quick note, GI50 for `CCc1nc(N)nc(N)c1-c1ccc([N+](C)(C)C)cc1` landed at > 100 µM (inactive)

Quick note, GI50 for `Cc1cc(-c2nc3cc(F)c(F)cc3s2)ccc1N` landed at 61.1 µM (inactive)

Quick note, GI50 for `O=C1OCC/C1=C/c1ccc(/N=N/c2c(O)ccc3ccccc23)cc1` landed at 27.2 µM (inactive)

Quick note, GI50 for `N=C(N)NC(=N)Nc1ccccc1.Sc1nc2ccccc2s1` landed at > 100 µM (inactive)

Quick note, GI50 for `O=S1(=O)N=C(SCc2ccccc2)N(c2ccccc2)c2ccncc21` landed at 31.7 µM (inactive)

Quick note, GI50 for CN(C)CCC(C(=O)C(C)(C)C)c1ccccn1 (configuration not stated) landed at > 100 µM (inactive)

Quick note, GI50 for `CCc1nnc(-n2c(C)nc3cc(Cl)ccc3c2=O)s1` landed at 28.2 µM (inactive)

Quick note, GI50 for N#CC1=C(N)N(/N=C/c2ccccc2)C(c2ccccc2)C1(C#N)C#N (configuration not stated) landed at 24.1 µM (inactive)

Quick note, GI50 for O=C1C2CCN(CC2)C1CN1CCOCC1 (configuration not stated) landed at 29 µM (inactive)

Quick note, GI50 for `C=CCN1C[C@H](C)N([C@H](c2ccc(C(=O)NC(CC)CC)cc2)c2cccc(OC)c2)C[C@H]1C` landed at > 100 µM (inactive)
